System: SN12C renal
assayProtocol: NCI-60 one-dose screen, 48 h
conditionsUsed: 10 µM
About 83,000 compounds went through this panel and 20% of them were active in at least one assay; those are over-represented in the sample as a whole. Active and inactive are the calls of the source. How the source made its calls: active means growth percent below 10; inactive means the rest.
Assign a class; possible classes are True = active, False = inactive

# compound, systemName, assignedCategory
records = [
    ("COc1cc(-c2nc(Nc3nc4ccccc4s3)[nH]c(=O)c2C#N)cc(OC)c1O", "SN12C renal", "False"),
    ("CC(=O)c1cc(Cl)ccc1O", "SN12C renal", "False"),
    ("CN(C)N=Nc1nn(C(=O)Nc2ccc(Cc3ccccc3)cc2)c2ccccc12", "SN12C renal", "False"),
    ("COc1ccc(-c2ccc(-c3ccc(C(=N)N)cn3)o2)cc1", "SN12C renal", "False"),
    ("O=C(CNC(=O)OCc1ccccc1)NCC(=O)Oc1ccc([N+](=O)[O-])cc1", "SN12C renal", "False"),
    ("CCCC(F)C(=O)O (stereo unspecified)", "SN12C renal", "False"),
]

In: Outcome logged for CN(C)c1ccc(/C=C/C=N/NC(=O)c2cc(O)c(O)c(O)c2)cc1 in this assay:
Out: False

In: Just curious, what result did N#CCCN1C/C(=C/c2ccc(Cl)cc2)C(=O)/C(=C/c2ccc(Cl)cc2)C1 get here?
Out: True

In: Hi, do you know how COc1cc2nc(Nc3cccc(C(=O)O)c3)nc(N)c2cc1OC came out in this test?
Out: False

In: Hi, sorry to bother you, what did the test record for COc1cc(/C=C2\Oc3cc(OCC(=O)c4ccccc4)ccc3C2=O)cc(OC)c1OC ?
Out: False

In: Just curious, what result did O=C(O)CN1C(=O)c2cccc3cccc(c23)C1=O get here?
Out: False
